compounds and their reported inhibition
experimental target: Ephrin type-A receptor 2 (Homo sapiens);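 further: value is the mean inhibition of EPHA2, measured in the GSK PKIS screen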
conditions: at 1 µM

| structure smiles string | unit tag | inhibition |
| --- | --- | --- |
| Cc1cc(Cl)cc2c1NC(=O)C2=NNc1ccc(S(N)(=O)=O)cc1 | % | 1.02 |
| CCS(=O)(=O)c1ccc(OC)c(Nc2nccc(N(C)c3ccc4c(C)n[nH]c4c3)n2)c1 | % | 10.1 |
| CN(C)C(=O)O[C@@H]1CN[C@@H](C#Cc2cc3ncnc(Nc4ccc(OCc5cccc(F)c5)c(Cl)c4)c3s2)C1 | % | 1.05 |
| CN1CCN(C(=O)c2ccc(NC(=O)Nc3ccc(N(C)c4ccnc(Nc5ccc(CS(C)(=O)=O)cc5)n4)cc3)cc2)CC1 | % | 5.09 |
| O=C1Nc2ccccc2/C1=C/Nc1ccc2[nH]c(=O)[nH]c2c1 | % | 3.88 |
| COC(=O)c1ccc2c(c1)C(=Cc1cc(Br)c(O)c(Br)c1)C(=O)N2 | % | 0.89 |
| CCn1c(-c2nonc2N)nc2c(C#CC(C)(C)O)nc(OCCNC)cc21 | % | -0.52 |
| Nc1nccc(-c2c(-c3ccc(F)cc3)ncn2CCCN2CCOCC2)n1 | % | 0.96 |
| Cc1ccc(C(=O)NC2CC2)cc1-c1ccc2[nH]ncc2c1 | % | -1.67 |

---

experimental target: Ephrin type-B receptor 2 (Homo sapiens)
conditions: at 1 µM
Description: GSK_PKIS: EPHB2 mean inhibition at 1 uM [Nanosyn]
measured parameter: inhibition (%)

| structure smiles string | numeric readout |
| --- | --- |
| O=C1Nc2ccc(-c3cccnc3)cc2C1=Cc1cc(Br)c(O)c(Br)c1 | 11 |
| Nc1ccc(C#Cc2cncnc2Nc2ccc(OCc3cccc(F)c3)c(Cl)c2)cc1 | 6.65 |
| Cc1ccc(NC(=O)CC2CC2)cc1-c1ccc(C(=O)NCC2CC2)cc1 | 11.6 |
| CN(c1ccc(NC(=O)Nc2ccc(OC(F)(F)F)cc2)cc1)c1ccnc(Nc2cccc(S(N)(=O)=O)c2)n1 | 54.8 |
| FC(F)(F)c1ccc(-c2nn3ncccc3c2-c2ccnc(Nc3ccc4c(c3)OCCO4)n2)cc1 | 36.7 |
| Cc1ccc(C(=O)NC2CC2)cc1-c1ccc2[nH]ncc2c1 | -4.6 |
| Nc1nccc(C#Cc2cncnc2Nc2ccc(OCc3cccc(F)c3)c(Cl)c2)n1 | 7.89 |
| Cc1nc(-c2ccccc2)n2nc(NCCCN3CCOCC3)ncc12 | 7.29 |
| [O-][S+]1CCN(Cc2ccc(-c3ccc4ncnc(Nc5ccc(OCc6ccccc6)c(Cl)c5)c4c3)o2)CC1 | 5.17 |
| COC(=O)c1ccc2c(c1)C(=Cc1cc(Br)c(O)c(Br)c1)C(=O)N2 | 7.02 |

---

experimental target: Platelet-derived growth factor receptor beta (Homo sapiens);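 further: each value is a mean percent inhibition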
conditions: at 1 µM
compounds and their reported inhibition
measured parameter: inhibition (%)

| structure smiles string | measured parameter | unit tag | numeric readout |
| --- | --- | --- | --- |
| COc1ccc2ncnc(Nc3ccc(OCc4ccccc4)cc3)c2c1 | inhibition | % | 7.02 |
| Cc1cc(O)cc(C)c1/C=C/c1cncc(C(=O)N(C)C)c1 | inhibition | % | 10 |
| Cc1ccc2c(c1)/C(=N/Nc1ccc(S(N)(=O)=O)cc1)C(=O)N2 | inhibition | % | 31.7 |
| N#Cc1cccc(Nc2nccc(-c3cnn4ncccc34)n2)c1 | inhibition | % | 65.1 |
| c1ccc(Cc2nc3ccc(Nc4ncnc5ccccc45)cc3[nH]2)cc1 | inhibition | % | 14.8 |
| CCn1c(-c2nonc2N)nc2ccc(F)cc21 | inhibition | % | 4.28 |
| COC(=O)c1cncc(/C=C/c2c(C)cc(O)cc2C)c1 | inhibition | % | 36.7 |
| Cc1ccc2c(-c3ccnc(Nc4ccc5c(c4)OCCO5)n3)c(-c3ccc(C(F)(F)F)cc3)nn2n1 | inhibition | % | 4.63 |
| Nc1nccc(-c2c(-c3ccc(F)cc3)nn3cc(C(F)(F)F)ccc23)n1 | inhibition | % | 2.13 |
| O=C(Nc1ccc(Oc2ccc3[nH]c(NC(=O)c4ccco4)nc3c2)cc1)Nc1cc(C(F)(F)F)ccc1F | inhibition | % | 58.3 |

---

experimental target: Tyrosine-protein kinase SYK (Homo sapiens) (UniProt P43405)
conditions: at 1 µM
Description: GSK_PKIS: SYK mean inhibition at 1 uM [Nanosyn]
measured parameter: inhibition (%)

| molecule | measured parameter | numeric readout |
| --- | --- | --- |
| N#Cc1cccc(Nc2nccc(-c3cnn4ncccc34)n2)c1 | inhibition | 53.2 |
| [O-][S+]1CCN(Cc2ccc(-c3ccc4ncnc(Nc5ccc(OCc6ccccc6)c(Cl)c5)c4c3)o2)CC1 | inhibition | 0 |
| CCCN1CCCC(c2ccc(Nc3nc(Nc4cc(F)ccc4C(N)=O)c4cc[nH]c4n3)c(OC)c2)C1 (stereo unspecified) | inhibition | 75.8 |
| COc1ccc2ncnc(Nc3ccc(OCc4ccccc4)cc3)c2c1 | inhibition | -1.05 |
| COC(=O)c1ccc2c(c1)C(=Cc1cc(Br)c(O)c(Br)c1)C(=O)N2 | inhibition | -1.69 |
| Cc1ccc(NC(=O)CC2CC2)cc1-c1ccc(C(=O)NCC2CC2)cc1 | inhibition | 0.5 |
| O=C1Nc2ccccc2/C1=C/Nc1ccc2[nH]c(=O)[nH]c2c1 | inhibition | -5.15 |
| Cc1cc(O)cc(C)c1/C=C/c1cncc(C(=O)N(C)C)c1 | inhibition | 2.96 |
| NS(=O)(=O)c1cccc(-c2cc3ccncc3cc2OCc2ccccc2)c1 | inhibition | -1.17 |
| COC(=O)Nc1nc2cc(Oc3ccc(NC(=O)Nc4cccc(Br)c4)cc3)ccc2[nH]1 | inhibition | 0.53 |
| COc1cc2ncn(-c3cc(OCc4ccccc4S(C)(=O)=O)c(C#N)s3)c2cc1OC | inhibition | -2.95 |

---

experimental target: Tyrosine-protein kinase ZAP-70 (Homo sapiens)
conditions: at 1 µM
Description: GSK_PKIS: ZAP70 mean inhibition at 1 uM [Nanosyn]
measured parameter: inhibition (%)

| structure smiles string | measured parameter | numeric readout |
| --- | --- | --- |
| NS(=O)(=O)c1ccc(Nc2cc(-c3cccc(O)c3)n[nH]2)cc1 | inhibition | 6.29 |
| Cc1ccc2c(-c3ccnc(Nc4cccc(C(F)(F)F)c4)n3)c(-c3ccccc3)nn2n1 | inhibition | 2.06 |
| Nc1nccc(C#Cc2cncnc2Nc2ccc(OCc3cccc(F)c3)c(Cl)c2)n1 | inhibition | 3.29 |
| COc1cc2ncnc(Nc3ccc(C)c(O)c3)c2cc1OC | inhibition | 1.79 |

---

molecules and their reported inhibition
experimental target: ALK tyrosine kinase receptor (Homo sapiens) (UniProt Q9UM73);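 further: values are mean percent inhibition of ALK, screened as part of the GSK PKIS panel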
Sequence (Q9UM73 19-1620 limits assumed): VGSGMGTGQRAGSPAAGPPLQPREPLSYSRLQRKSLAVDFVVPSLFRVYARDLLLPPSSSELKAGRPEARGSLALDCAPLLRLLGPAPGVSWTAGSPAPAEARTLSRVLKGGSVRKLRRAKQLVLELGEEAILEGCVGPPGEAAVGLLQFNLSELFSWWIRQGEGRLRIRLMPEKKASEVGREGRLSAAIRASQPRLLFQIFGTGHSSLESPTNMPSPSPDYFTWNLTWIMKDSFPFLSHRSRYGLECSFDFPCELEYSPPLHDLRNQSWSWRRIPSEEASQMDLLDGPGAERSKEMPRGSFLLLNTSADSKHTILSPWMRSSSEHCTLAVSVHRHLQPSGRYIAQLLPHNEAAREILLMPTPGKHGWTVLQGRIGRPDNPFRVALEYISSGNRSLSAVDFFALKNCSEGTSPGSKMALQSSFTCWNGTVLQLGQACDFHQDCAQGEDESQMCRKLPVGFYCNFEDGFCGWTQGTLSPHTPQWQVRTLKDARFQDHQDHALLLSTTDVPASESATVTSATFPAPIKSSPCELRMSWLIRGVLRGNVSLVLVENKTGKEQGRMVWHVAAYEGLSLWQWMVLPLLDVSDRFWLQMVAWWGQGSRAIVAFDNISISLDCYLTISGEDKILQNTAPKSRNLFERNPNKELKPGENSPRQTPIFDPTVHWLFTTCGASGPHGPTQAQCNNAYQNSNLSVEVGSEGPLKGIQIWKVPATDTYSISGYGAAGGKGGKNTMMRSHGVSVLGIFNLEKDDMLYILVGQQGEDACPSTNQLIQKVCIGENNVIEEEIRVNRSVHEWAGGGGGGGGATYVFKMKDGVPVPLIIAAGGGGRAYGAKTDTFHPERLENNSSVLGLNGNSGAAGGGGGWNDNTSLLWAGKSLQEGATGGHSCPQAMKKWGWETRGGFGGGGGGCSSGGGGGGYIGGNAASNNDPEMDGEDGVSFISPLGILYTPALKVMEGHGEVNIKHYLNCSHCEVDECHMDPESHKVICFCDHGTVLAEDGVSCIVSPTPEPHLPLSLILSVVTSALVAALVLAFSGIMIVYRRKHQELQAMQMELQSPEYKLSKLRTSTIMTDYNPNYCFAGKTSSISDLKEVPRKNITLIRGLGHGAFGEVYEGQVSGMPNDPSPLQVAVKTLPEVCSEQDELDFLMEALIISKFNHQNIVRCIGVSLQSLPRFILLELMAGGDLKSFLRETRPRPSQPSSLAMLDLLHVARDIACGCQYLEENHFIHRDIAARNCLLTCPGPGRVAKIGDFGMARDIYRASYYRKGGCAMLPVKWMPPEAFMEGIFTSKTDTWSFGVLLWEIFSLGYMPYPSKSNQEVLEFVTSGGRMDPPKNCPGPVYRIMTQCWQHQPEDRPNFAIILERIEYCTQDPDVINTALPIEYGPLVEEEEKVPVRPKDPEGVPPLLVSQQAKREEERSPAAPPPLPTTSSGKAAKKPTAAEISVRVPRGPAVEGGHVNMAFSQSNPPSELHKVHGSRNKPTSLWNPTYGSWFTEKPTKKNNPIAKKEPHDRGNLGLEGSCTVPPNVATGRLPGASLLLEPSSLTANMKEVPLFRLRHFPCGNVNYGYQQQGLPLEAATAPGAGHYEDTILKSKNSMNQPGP
conditions: at 1 µM

| structure smiles string | experimental target | unit tag | inhibition |
| --- | --- | --- | --- |
| COc1cccc(-n2nc(C)c3c(N/N=C(\C)c4ccncc4)ncnc32)c1 | ALK tyrosine kinase receptor (Homo sapiens) (UniProt Q9UM73) | % | 1.35 |
| CN(C)C(=O)O[C@@H]1CN[C@@H](C#Cc2cc3ncnc(Nc4ccc(OCc5cccc(F)c5)c(Cl)c4)c3s2)C1 | ALK tyrosine kinase receptor (Homo sapiens) (UniProt Q9UM73) | % | 1.3 |
| Cc1cc(O)cc(C)c1/C=C/c1cncc(C(=O)N(C)C)c1 | ALK tyrosine kinase receptor (Homo sapiens) (UniProt Q9UM73) | % | 3.57 |
| NS(=O)(=O)c1ccc(NC=C2C(=O)Nc3ccc4ncsc4c32)cc1 | ALK tyrosine kinase receptor (Homo sapiens) (UniProt Q9UM73) | % | 32.2 |
| c1ccc(Cc2nc3ccc(Nc4ncnc5ccccc45)cc3[nH]2)cc1 | ALK tyrosine kinase receptor (Homo sapiens) (UniProt Q9UM73) | % | 5.36 |

---

experimental target: Mast/stem cell growth factor receptor Kit (Homo sapiens) (UniProt P10721);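 further: values are mean inhibition of KIT, from the GSK PKIS dataset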
Sequence (P10721 whole entry): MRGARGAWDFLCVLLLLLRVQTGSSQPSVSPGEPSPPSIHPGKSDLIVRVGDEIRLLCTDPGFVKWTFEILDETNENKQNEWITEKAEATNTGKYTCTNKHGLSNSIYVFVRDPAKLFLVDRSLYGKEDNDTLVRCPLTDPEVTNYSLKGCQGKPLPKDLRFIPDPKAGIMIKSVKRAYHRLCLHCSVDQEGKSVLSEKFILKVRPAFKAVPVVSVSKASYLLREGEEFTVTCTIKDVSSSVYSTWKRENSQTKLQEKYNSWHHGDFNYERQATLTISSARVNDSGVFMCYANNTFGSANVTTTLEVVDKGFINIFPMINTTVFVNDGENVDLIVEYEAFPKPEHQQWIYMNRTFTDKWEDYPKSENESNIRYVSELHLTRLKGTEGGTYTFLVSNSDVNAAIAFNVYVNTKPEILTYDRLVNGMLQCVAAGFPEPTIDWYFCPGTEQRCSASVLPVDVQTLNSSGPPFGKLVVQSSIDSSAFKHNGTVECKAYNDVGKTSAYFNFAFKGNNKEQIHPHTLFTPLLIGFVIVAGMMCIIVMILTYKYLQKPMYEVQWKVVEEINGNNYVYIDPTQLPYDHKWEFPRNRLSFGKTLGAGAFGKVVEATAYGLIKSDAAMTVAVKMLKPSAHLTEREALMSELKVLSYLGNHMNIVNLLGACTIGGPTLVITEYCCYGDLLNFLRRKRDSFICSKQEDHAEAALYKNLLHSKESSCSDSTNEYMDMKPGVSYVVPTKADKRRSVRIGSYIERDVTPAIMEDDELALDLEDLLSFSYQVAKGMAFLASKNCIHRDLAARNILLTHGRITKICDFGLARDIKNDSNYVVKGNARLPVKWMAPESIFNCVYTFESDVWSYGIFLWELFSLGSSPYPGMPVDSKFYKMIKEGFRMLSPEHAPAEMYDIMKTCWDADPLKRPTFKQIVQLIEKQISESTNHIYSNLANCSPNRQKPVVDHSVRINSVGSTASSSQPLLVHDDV
conditions: at 0.1 µM
compounds and their reported inhibition
measured parameter: inhibition (%)

| structure smiles string | experimental target | unit tag | numeric readout |
| --- | --- | --- | --- |
| CC(C)c1ccc2c(c1)NC(=O)/C2=N/Nc1ccc(S(N)(=O)=O)cc1 | Mast/stem cell growth factor receptor Kit (Homo sapiens) (UniProt P10721) | % | 7.67 |
| COc1cccc(-n2ncc3c(N/N=C/c4ccc(S(C)(=O)=O)cc4)ncnc32)c1 | Mast/stem cell growth factor receptor Kit (Homo sapiens) (UniProt P10721) | % | 16 |
| CCn1c(-c2nonc2N)nc2ccc(F)cc21 | Mast/stem cell growth factor receptor Kit (Homo sapiens) (UniProt P10721) | % | 5.81 |
| COc1cc2ncn(-c3cc(OCc4ccccc4S(C)(=O)=O)c(C#N)s3)c2cc1OC | Mast/stem cell growth factor receptor Kit (Homo sapiens) (UniProt P10721) | % | 5.42 |
| NC(=O)c1cccc(Nc2nccc(Nc3cccc(F)c3)n2)c1 | Mast/stem cell growth factor receptor Kit (Homo sapiens) (UniProt P10721) | % | 42.5 |

---

molecules and their reported inhibition
experimental target: SRSF protein kinase 3 (Homo sapiens);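 further: mean of replicate inhibition values against MSSK1 kinase, profiled within the GSK PKIS kinase inhibitor set screen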
conditions: at 0.1 µM
measured parameter: inhibition (%)

| structure smiles string | measured parameter | unit tag | numeric readout |
| --- | --- | --- | --- |
| Cc1ccc(NC(=O)CC2CC2)cc1-c1ccc(C(=O)NCC2CC2)cc1 | inhibition | % | -0.32 |
| COc1cc2ncnc(Nc3ccc(C)c(O)c3)c2cc1OC | inhibition | % | -1.99 |
| N#Cc1cccc(Nc2nccc(-c3cnn4ncccc34)n2)c1 | inhibition | % | 0.24 |

// data source = ChEMBL document CHEMBL1961873
